Biological target: Tyrosine-protein phosphatase non-receptor type 22 (Homo sapiens, UniProt Q9Y2R2)
Sequence (Q9Y2R2 whole entry): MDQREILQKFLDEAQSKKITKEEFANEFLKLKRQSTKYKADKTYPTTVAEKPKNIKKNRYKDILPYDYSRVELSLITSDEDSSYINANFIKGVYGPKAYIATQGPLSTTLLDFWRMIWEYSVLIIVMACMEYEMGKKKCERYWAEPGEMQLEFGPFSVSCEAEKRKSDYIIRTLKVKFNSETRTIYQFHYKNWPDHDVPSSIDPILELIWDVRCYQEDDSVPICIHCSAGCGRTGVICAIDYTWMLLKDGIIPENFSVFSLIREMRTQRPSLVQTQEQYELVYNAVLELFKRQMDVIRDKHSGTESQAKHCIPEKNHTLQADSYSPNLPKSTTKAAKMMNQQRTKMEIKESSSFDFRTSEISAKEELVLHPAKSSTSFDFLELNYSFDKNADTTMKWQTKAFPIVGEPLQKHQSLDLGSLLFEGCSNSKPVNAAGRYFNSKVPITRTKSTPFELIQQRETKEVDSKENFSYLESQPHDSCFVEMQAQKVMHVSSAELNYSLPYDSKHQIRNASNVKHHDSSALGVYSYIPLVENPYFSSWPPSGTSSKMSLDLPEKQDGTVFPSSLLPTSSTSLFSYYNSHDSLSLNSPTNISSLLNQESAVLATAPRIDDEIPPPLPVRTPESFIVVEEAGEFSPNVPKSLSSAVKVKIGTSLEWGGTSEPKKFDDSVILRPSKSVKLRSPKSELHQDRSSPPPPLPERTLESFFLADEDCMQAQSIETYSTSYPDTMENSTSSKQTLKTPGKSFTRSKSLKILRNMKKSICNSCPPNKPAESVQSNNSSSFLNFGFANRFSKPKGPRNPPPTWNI
measuredQuantity: pIC50
Kindly note that pIC50 refers to -log10 of the concentration in mol/L and answer with the value alone.

Examples from the recorded data:
| smilesRepr | experimentalTarget | measurement |
| --- | --- | --- |
| CC1=C[C@@H](c2c(O)ccc([C@@H]3CC(=O)c4c(O)cc(O)cc4O3)c2O)[C@H](C(=O)c2ccc(O)cc2O)[C@@H](c2ccc(O)cc2O)C1 | Tyrosine-protein phosphatase non-receptor type 22 (Homo sapiens, UniProt Q9Y2R2) | 4.92 |
| O=c1cc(-c2ccc(O)cc2O)oc2cc(O)cc(O)c12 | Tyrosine-protein phosphatase non-receptor type 22 (Homo sapiens, UniProt Q9Y2R2) | 4.52 |
| CC(C)=CCc1c(O)ccc(C(=O)[C@H]2[C@@H](c3c(O)cc(-c4cc5ccc(O)cc5o4)cc3O)C=C(C)C[C@@H]2c2ccc(O)cc2O)c1O | Tyrosine-protein phosphatase non-receptor type 22 (Homo sapiens, UniProt Q9Y2R2) | 5.14 |
| CC(C)=CCc1c(O)ccc(C(=O)[C@@H]2[C@@H](c3ccc(O)cc3O)CC(C)=C[C@H]2c2c(O)cc(O)c3c(=O)c(CC=C(C)C)c(-c4ccc(O)cc4O)oc23)c1O | Tyrosine-protein phosphatase non-receptor type 22 (Homo sapiens, UniProt Q9Y2R2) | 4.93 |
| CC(C)=CCc1c(O)cc2c(c1O)C(=O)C[C@@H](c1cc3c(cc1O)OC(C)(C)C=C3)O2 | Tyrosine-protein phosphatase non-receptor type 22 (Homo sapiens, UniProt Q9Y2R2) | 5.02 |

Form field pIC50 for item `Oc1cc(O)cc(/C=C/c2ccc(O)cc2O)c1` on Tyrosine-protein phosphatase non-receptor type 22 (Homo sapiens, UniProt Q9Y2R2): 4.50

Form field pIC50 for item `CC(C)=CCc1c(-c2ccc(O)cc2O)oc2c([C@@H]3C=C(C)C[C@H](c4ccc(O)cc4O)[C@H]3C(=O)c3ccc(O)cc3O)c(O)cc(O)c2c1=O` on Tyrosine-protein phosphatase non-receptor type 22 (Homo sapiens, UniProt Q9Y2R2): 4.73

Form field pIC50 for item `CC(C)=CCc1c(-c2ccc(O)cc2O)oc2c3c(cc(O)c2c1=O)OC(C)(C)C=C3` on Tyrosine-protein phosphatase non-receptor type 22 (Homo sapiens, UniProt Q9Y2R2): 4.82

* * *

Target: Phosphotyrosine protein phosphatase (Mycobacterium tuberculosis)
Sequence (A0A045ISB3 whole entry): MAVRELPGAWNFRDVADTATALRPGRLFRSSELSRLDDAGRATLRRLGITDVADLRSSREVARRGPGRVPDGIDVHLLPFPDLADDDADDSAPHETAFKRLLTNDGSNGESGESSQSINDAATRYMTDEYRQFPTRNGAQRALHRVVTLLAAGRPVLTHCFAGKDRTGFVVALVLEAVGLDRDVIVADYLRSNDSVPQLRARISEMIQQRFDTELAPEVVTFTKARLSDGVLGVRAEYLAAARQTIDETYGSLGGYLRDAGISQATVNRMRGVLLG
Assay: Binding affinity to Mycobacterium tuberculosis PtpB by fluorescence based assay
measuredQuantity: Kd (nM)
State just the number; it will be interpreted in nM.

| smilesRepr | experimentalTarget | unitTag | Kd |
| --- | --- | --- | --- |
| CC(C)=CCc1c(O)ccc(C(=O)[C@@H]2[C@@H](c3ccc(O)cc3O)CC(C)=C[C@H]2c2c(O)cc(O)c3c(=O)c(CC=C(C)C)c(-c4ccc(O)cc4O)oc23)c1O | Phosphotyrosine protein phosphatase (Mycobacterium tuberculosis) | nM | 850 |

// Kd value for `CC(C)=CCc1c(-c2ccc(O)cc2O)oc2c([C@@H]3C=C(C)C[C@H](c4ccc(O)cc4O)[C@H]3C(=O)c3ccc(O)cc3O)c(O)cc(O)c2c1=O` : 700
